# assayedTarget: T1, Histidine-tagged human 4-1BB protein (h4-1BB-His) (human, UniProt Q07011 24-186)
# T1 construct: not shown: histidine tag
# protocol: SPR (Biacore T200), antibody on Protein A chip, h4-1BB-His injected;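 further: dissociation phase followed for 300 s, Kd derived as koff divided by kon from the kinetic fit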
quantityMeasured: koff (s⁻¹)
Return type: number; implicit unit s⁻¹.

QUERY: So what's the measured koff for this one? 70-3F9-mHvKv-IgG2 (antibody, V domains shown) VH: QVQLQQPGAELVRPGASVKLSCKASGYTFTSYWINWVKQRPGQGLEWIGNIFPSDSYTNYNQKFKDRAKLTVDKSSSTAYMQLSSPTSEDSAVYYCTRFGSSGYPDYYTMEYWGQGTSVTVSS VL: DIQMTQSPASLSASVGETVTITCRASGNIDNYLAWYQQKQGKSPQLLVYNAKTLAEGVPSRFSGSGSGTEYSLKINSLQPEDFGSYHCQQYWTIPYTFGGGTKLEIK
RESULT: 0.000159

QUERY: So what's the measured koff for this one? 30-5F9-mHvKv-IgG4 (antibody, V domains shown) VH: QVQLKESGPGLVAPSQSLSITCTVSGFSLTTYDISWVRQPPGKGLEWLGVIWTGGGTNYNSSFMSRLSISKDNSKNQVFLKMNSLQVDDTAIYYCERVDYWGQGTTLTVSS VL: DVVMTQTPLSLPVSLGDQASISCRSSQSLVHSNGNTYLHWYLQKPGQSPKLLIYKVSNRFSGVPDRFSGSGSGTAFTFKISRVEAEDLGVYFCSQNTHVPWTFGGGTKLEIK
RESULT: 0.00247

QUERY: So what's the measured koff for this one? 5F9-H1K1-IgG4 (antibody, V domains shown, humanized) VH: QVQLQESGPGLVKPSETLSLTCTVSGFSLTTYDISWVRQPPGKGLEWIGVIWTGGGTNYNSSFMSRVTISKDTSKNQVSLKLSSVTAADTAVYYCERVDYWGQGTTVTVSS VL: DVVMTQSPLSLPVTLGQPASISCRSSQSLVHSNGNTYLHWFQQRPGQSPRLLIYKVSNRFSGVPDRFSGSGSGTAFTFKISRVEAEDVGVYYCSQNTHVPWTFGGGTKVEIK
RESULT: 0.00253

QUERY: So what's the measured koff for this one? 1C4-H1K1-IgG4 (antibody, V domains shown, humanized; also called 1C4-IgG4-H1K1) VH: QVQMVQSGAEVKKPGASVKLSCKASGFTFSSSYINWLRQAPGQRLEWMGWIFAGTGGTYYNQKFTGRVTITRDTSASTAYMELSSLRSEDTAIYYCARHSPRATLFDFWGQGTTLTVSS VL: EIVLTQSPATLSLSPGERATLSCRASSSVNHMHWYQQKPGQAPRALIYATSNLASGIPARFSGSGSGTSFTLTISSLEPEDFAVYYCQQWSSNPYTFGGGTKLEIK
RESULT: 0.000616

QUERY: So what's the measured koff for this one? 6A5-H1K2-IgG2 (antibody, V domains shown, humanized) VH: QVQLVQSGAEVKKPGSSVKLSCKASGYTFSSYWINWVRQAPGQGLEWMGNIYPSDSYTNYNQKFKDRVTLTVDKSTSTAYMELSSLRSEDTAVYYCTRTWEFYYDSVFDYWGQGTLVTVSS VL: DIQMTQSPSSLSASLGERVTITCKASQDINSYLSWYQQKPGKAPKTLIYRANRLVDGVPSRFSGSGSGQDFTLTISSLQPEDIATYYCLQYDELPPTFGGGTKVEIK
RESULT: 0.000662
